- Test system: HCT-15 colon
- Assay Protocol: NCI-60 one-dose screen, 48 h (100 = growth as untreated, 0 = no growth, -100 = all killed)
- Condition Summary: 10 µM unless noted
Compounds without any hit were thinned out: in the full panel of roughly 83,000, 20% have a hit.
Class boundaries, taken from values of growth, are as follows: lowest = under 40%, middle = from 40% up to 70%, highest = 70% and over

>>> class("Cc1nc2sc(C(=O)Nc3cccc(Cl)c3C)c(N)c2cc1C(C)O (centres undefined)")
"lowest"
>>> class("O=C1Nc2ccccc2C12C=C(c1ccccc1)Nc1c2c(-c2ccccc2)nn1-c1ccccc1 (centres undefined)")
"middle"
>>> class("COc1ccc2c(c1)/C(=C1\\S/C(=N/c3nnc(C)s3)NC1=O)C(=O)N2Cc1ccc(Cl)cc1")
"lowest"
>>> class("Cc1ccc(C2CC(c3ccc(Nc4nc(NCCO)nc(NCCO)n4)cc3)=NN2c2ccc(Cl)cc2)cc1 (centres undefined)")
"middle"
>>> class("Nc1ccc2c(c1)C(=O)C(=O)c1c-2nc2ccccn12")
"lowest"
>>> class("CCCCc1n(Cc2ccc3ccccc3n2)cc[n+]1Cc1ccc2ccccc2c1")
"highest"
>>> class("COc1cc(C2=NNC(c3ccc(N(C)C)cc3)C2)cc(OC)c1OC (centres undefined)")
"lowest"
>>> class("CN1CCN(CC#CCOC(=O)CNC(=O)[C@]23CCC(C)(C)C[C@H]2C2=CC[C@@H]4[C@@]5(C)CC[C@H](O)C(C)(C)[C@@H]5CC[C@@]4(C)[C@]2(C)CC3)CC1")
"highest"
>>> class("Oc1c(CCl)cc(Cl)cc1Cc1cc(Cl)cc(Cc2cc(Cl)cc(CCl)c2O)c1O")
"lowest"
>>> class("COc1ccc(C2C(c3ccccc3)C(=O)N2c2cc(OC)c(OC)c(OC)c2)cc1I (centres undefined)")
"lowest"
>>> class("COc1cc(C2=NN(c3ccccc3)C(c3cccc(Nc4ccnc5cc(C(F)(F)F)ccc45)c3)C2)cc(OC)c1OC (centres undefined)")
"highest"
>>> class("CCOC(=O)C(=Cc1c(-c2ccccc2)[nH]c2ccccc12)C(=O)OCC")
"lowest"
>>> class("COC(=O)CCc1cc(O)c2c(c1)[C@@H](C(=O)OC)[C@H](c1ccc(O)c(O)c1)O2")
"middle"
>>> class("O=S(=O)(Nc1nccs1)c1ccc(Nc2nc(-c3ccncc3)cs2)cc1")
"highest"
>>> class("C#C[C@@]1(O)[C@@H](CO)O[C@@H](n2cc(-c3ccco3)c3c(N)ncnc32)[C@@H]1O")
"middle"
>>> class("CN(C)C1=NCCN1")
"highest"
>>> class("N#Cc1c(-c2ccc(Cl)cc2)cc(-c2cc3ccccc3o2)nc1SCC(=O)c1ccc(Cl)cc1")
"highest"
>>> class("O=CN1N=C(c2ccc(F)cc2)CC1c1cccc(Nc2ccnc3cc(C(F)(F)F)ccc23)c1 (centres undefined)")
"middle"

---

- System: IGROV1 ovarian
- Assay Protocol: NCI-60 one-dose screen, 48 h
- Condition Summary: 10 µM unless noted
The panel holds about 83,000 compounds, 20% with a hit somewhere; the sample as a whole holds those more often. The source made the active and inactive calls. How the source made its calls: active means growth percent below 10; inactive means the rest.
Outcome codes: active, inactive

>>> class("Nc1c(C(=O)Nc2cccc3ccccc23)sc2nc3c(cc12)CCCCC3")
"inactive"
>>> class("COc1ccc(-c2nc(C#N)c(NCC(c3ccco3)N3CCCC3)o2)cc1 (stereo not given)")
"inactive"
>>> class("COc1cccc(NC(=O)Nc2ccc(Oc3ncnc4[nH]c(C)c(C)c34)cc2)c1")
"inactive"
>>> class("CCCn1cc(/C=N\\N=C2\\C(=O)Nc3ccc(C)cc32)c2ccccc21")
"inactive"
>>> class("CCCCc1ccc(N=Nc2ccc(OCC[N+](C)(C)C)cc2)cc1")
"inactive"
>>> class("Cc1ccc(SC2c3ccc(C)cc3Oc3nc(N)c(C#N)c(N)c32)cc1 (stereo not given)")
"inactive"
>>> class("C=C1C(=O)O[C@H]2[C@H]1CC/C(COC(=O)CCCCCCCC(=O)OC/C1=C/CC[C@@]3(C)O[C@H]3[C@H]3OC(=O)C(=C)[C@@H]3CC1)=C\\CC[C@@]1(C)O[C@@H]21")
"active"
>>> class("COc1ccc(/C=C/C(=O)c2ccc(NC(=O)CSc3nnc(-c4ccc(OC)c(OC)c4)n3-c3ccccc3)cc2)cc1")
"active"
>>> class("COC(=O)CCc1n(Cc2ccc3ccccc3c2)c2ccccc2[n+]1Cc1ccc2ccccc2c1")
"active"
>>> class("S=C(Nc1ccc(Cl)cc1)c1ccccn1")
"inactive"
>>> class("CCOC(=O)c1ccc(Nc2ncnc3ccc(NC(=O)c4ccccc4)cc23)cc1")
"inactive"
>>> class("CC(C)(C#N)c1cc(F)cc(C(=O)Nc2cc(Nc3ncccc3-c3ncnc4nc[nH]c34)ccc2F)c1")
"inactive"
>>> class("O=C1Nc2ccccc2C12C=C(c1ccccc1)Nc1c2c(-c2ccccc2)nn1-c1ccccc1 (stereo not given)")
"inactive"
>>> class("c1ccc2c3c([nH]c2c1)C(c1ccc(C2NCCc4c2[nH]c2ccccc42)cc1)NCC3 (stereo not given)")
"inactive"
>>> class("COC(=O)/C=C1\\SC(=Nc2cccc(OC)c2)N(CCc2c[nH]c3ccccc23)C1=O")
"inactive"
>>> class("CN(C)C1=NCCN1")
"inactive"
>>> class("Cc1ccccc1NC(=O)c1sc2nc(C)c(C(C)O)cc2c1N (stereo not given)")
"inactive"
>>> class("Nc1ccccc1NC(=O)c1ccc(CSc2nc(N3CCOCC3)c3cccn3n2)cc1")
"inactive"
>>> class("COc1ccc(N(C)c2nc(Cl)nc3ccn(C)c23)cc1")
"inactive"
>>> class("COC(=O)/C=C1\\SC(=Nc2cccc(Cl)c2)N(CCc2c[nH]c3ccccc23)C1=O")
"inactive"
>>> class("CCOCc1cc(C(C)(C)C)ccc1O")
"inactive"
>>> class("C#CCN1C(=O)c2ccccc2N(CC#C)C12CCN(Cc1cn(CC(=O)Nc3ccccc3C(N)=O)nn1)CC2")
"inactive"
>>> class("C=C1C(=O)O[C@H]2[C@H]1CC/C(C=Nc1c(N)cc(F)cc1Br)=C\\CC[C@@]1(C)O[C@@H]21")
"inactive"
>>> class("Cc1nc(C)c(C)nc1C")
"inactive"
>>> class("S=c1ssnc1-c1cc2ccccc2o1")
"active"
>>> class("Cc1cc(Cl)cc(CN(Cc2ccccc2)Cc2c(O)ccc3ccccc23)c1O")
"inactive"
>>> class("O=S(=O)(Nc1nccs1)c1ccc(Nc2nc(-c3ccncc3)cs2)cc1")
"inactive"
>>> class("CC1CCCN(CCCCCOc2ccc3oc4ccc(Cl)cc4c(=O)c3c2)C1 (stereo not given)")
"inactive"
>>> class("C#Cc1ccccc1NC(=O)c1sc2nc3c(cc2c1N)CCCCCC3")
"inactive"
>>> class("CCOC(=O)/C=C1\\SC(=Nc2ccc(C#N)cc2)N(CCN2C(=O)/C(=C/C(=O)OCC)SC2=Nc2ccc(C#N)cc2)C1=O")
"inactive"
>>> class("COc1cc2nc3c(=O)n(CCN(C)C)cnn3c(=O)c2cc1OC")
"inactive"
>>> class("CCn1cc(C(=O)O)c(=O)c2cc(F)c(N3CCN(CC(=O)Nc4ccc(/C(C)=N/OC)cc4)CC3)cc21")
"inactive"
>>> class("CC1=C/C(=N\\N=C2/C=C(C)CC(C)(C)C2)CC(C)(C)C1")
"inactive"
>>> class("CCC[S@@](=O)c1ccc2nc(NC(=O)OC)[nH]c2c1")
"inactive"
>>> class("COc1ccc(C2=NN(c3ccc(S(N)(=O)=O)cc3)C(c3ccc(Cl)cc3)C2)c(O)c1 (stereo not given)")
"inactive"
>>> class("Nc1cc(N)c(S(=O)(=O)O)cc1N=Nc1cc([N+](=O)[O-])ccc1O")
"inactive"
>>> class("COc1ccc2nc(-c3ccc(Cl)cc3)cc(-c3nnc(SCC(=O)Nc4ccc(/C(C)=N\\O)cc4)o3)c2c1")
"inactive"
>>> class("C#Cc1ccccc1NC(=O)c1sc2nc3c(cc2c1N)CCCCC3")
"inactive"
>>> class("COc1cc(C)ccc1Oc1nc(Nc2ccc(N3CCOCC3)cc2)ncc1N=Cc1cc(C(F)(F)F)cc(C(F)(F)F)c1")
"inactive"
>>> class("N#CC1(C#N)C2=C(CCCC2)NC(c2c(F)cccc2Cl)C1(C#N)C#N (stereo not given)")
"inactive"

Reference for the values: PubChem BioAssay (NCI)
